# test details: basal RPMI8226 mitochondrial membrane potential changes, profiling panel, cell-based, JC-1 fluorescence, 24 h, 100 nL compound (AID 1169); further: test concentration not given here
# study conditions: RPMI8226 myeloma, JC-1 mitochondrial potential fluorescence, higher = more signal
Entry flag: fulfilled if z-score reaches -0.06; not fulfilled if it does not.

// known answers, use as guide
{"compound": "CCOC(=O)C1=CCN(S(=O)(=O)c2ccc(C)cc2)C1c1ccccc1 (configuration not stated)", "answer label": "fulfilled"}
{"compound": "CO[C@H]1O[C@H](CO)[C@@H](OC(=O)CCc2ccccc2)[C@H](OC(=O)c2cc3ccccc3[nH]2)[C@H]1OC(=O)c1cc2ccccc2[nH]1", "answer label": "not fulfilled"}
{"compound": "Cc1ccc(S[C@]2(C(=O)NC(C)C)CC(=O)N(Cc3ccccc3Cl)[C@@H]2c2ccc(CO)cc2)cc1", "answer label": "not fulfilled"}

Query: Please check the record `NC(=O)NCC#Cc1ccc2c(c1)[C@]1(C(=O)N2)[C@H](C(=O)N2CCN(c3ncccn3)CC2)[C@H]2C(=O)O[C@H](c3ccccc3)[C@H](c3ccccc3)N2[C@@H]1c1ccc(OCCO)cc1` and state if its z-score is at or above -0.06.
Reply: not fulfilled

Query: Please check the record CC(C)c1ccc(NN2C(C(O)Cc3ccccc3)C=CC3C(=O)N(c4ccccc4)C(=O)C32)cc1 (configuration not stated) and state if its z-score is at or above -0.06.
Reply: fulfilled

Query: Please check the record `COc1ccc(CCNC(=O)[C@@]2(Cc3ccccc3I)c3ccccc3C(=O)N(Cc3ccccc3Cl)[C@H]2c2ccc(CO)cc2)cc1` and state if its z-score is at or above -0.06.
Reply: not fulfilled

Query: Please check the record `C=C/C=C/[C@@H]1C(=C)CN([C@@H](Cc2ccccc2)C(=O)OC)[C@H]1[C@@H](O)Cc1ccccc1` and state if its z-score is at or above -0.06.
Reply: not fulfilled

###

# target under test: NADPH oxidase 4 (Homo sapiens)
# test details: NOX4-dependent H2O2 signal modulators, primary screen, NOX inhibitor project, cell-based, HEK293-NOX4, tetracycline-induced, Amplex Red fluorescence (AID 1160)
# study conditions: 45 min, higher = more signal, called active from +8 up or from −8 down
Entry flag: Condition met if z-score reaches 1; Condition not met if it does not.

// known answers, use as guide
{"compound": "COc1cc(CO)cc(I)c1O[C@H]1C=C(C(=O)NCCO)C[C@@H](NCC2CCCCC2)[C@@H]1O", "target under test": "NADPH oxidase 4 (Homo sapiens)", "answer label": "Condition not met"}
{"compound": "CCN(CC)c1ccc(N2CC=CC34O[C@@H]5/C=C\\CCC(C)OC(=O)C5[C@H]3C(=O)N(C(C)CO)[C@@H]4C2=O)cc1 (stereo partly drawn)", "target under test": "NADPH oxidase 4 (Homo sapiens)", "answer label": "Condition not met"}
{"compound": "COc1ccc(C#Cc2ccc3c(c2)[C@]2(C(=O)N3)[C@H](C(=O)Nc3nc4ccccc4s3)[C@H]3C(=O)O[C@H](c4ccccc4)[C@H](c4ccccc4)N3[C@@H]2c2ccccc2OCCO)cc1", "target under test": "NADPH oxidase 4 (Homo sapiens)", "answer label": "Condition not met"}

Query: Please check the record `Cc1ccc(S[C@]2(C(=O)NC(C)C)CC(=O)N(Cc3ccccc3Cl)[C@@H]2c2ccc(CO)cc2)cc1` and state if its z-score is at or above 1.
Reply: Condition not met

Query: Please check the record `CC(C)[Si]1(C(C)C)OCc2cc(-c3ccc(-c4ccc(Cl)c(Cl)c4)o3)nc(CCc3ccccc3)c21` and state if its z-score is at or above 1.
Reply: Condition not met

Query: Please check the record `[N-]=[N+]=NCc1ccccc1[C@H]1OC(c2ccc(OCCCO)cc2)=N[C@@]1(Cc1ccccc1)C(=O)NCCN1CCOCC1` and state if its z-score is at or above 1.
Reply: Condition met

Query: Please check the record `COC(=O)[C@@]1(Cc2ccc(F)cc2)[C@H]2c3cc(C(=O)N(C)C)n(Cc4ccc(O)c(OC)c4)c3C[C@H]2CN1C(=O)c1ccccc1` and state if its z-score is at or above 1.
Reply: Condition not met

Query: Please check the record `CC(C)CNC(=O)[C@@H]1c2ccccc2C(=O)N(C2CCCCC2)[C@H]1c1ccc(CO)cc1` and state if its z-score is at or above 1.
Reply: Condition met
